The measured values listed here are drawn from patent US9650339B2.

pIC50: −log10 of the molar value.
KDM4A (JMJD2A) (Homo sapiens, UniProt O75164) pIC50 data
Sequence (O75164 1-350): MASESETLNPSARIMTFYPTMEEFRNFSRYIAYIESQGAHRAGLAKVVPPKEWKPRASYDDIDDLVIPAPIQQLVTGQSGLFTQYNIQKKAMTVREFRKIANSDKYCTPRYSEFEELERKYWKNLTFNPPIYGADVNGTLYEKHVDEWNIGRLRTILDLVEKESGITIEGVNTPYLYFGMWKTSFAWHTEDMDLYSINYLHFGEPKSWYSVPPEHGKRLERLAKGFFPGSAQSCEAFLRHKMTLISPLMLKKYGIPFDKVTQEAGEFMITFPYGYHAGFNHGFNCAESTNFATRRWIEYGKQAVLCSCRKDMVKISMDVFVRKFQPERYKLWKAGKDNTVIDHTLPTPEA
measurement_type: pIC50

>>> result("COc1ccccc1CN1CCC(NC(=O)CNCc2cc(CN)ccn2)CC1")
"< 5.60"
>>> result("CCCNCc1cc(CNC2CC2)ccn1")
"< 5.60"
>>> result("CCN(CC)CCCCNCc1cc(/C=N/CCO)ccn1")
"< 5.60"
>>> result("C(=N\\C1CC1)/c1ccnc(CNCCCCN2CCC2)c1")
"< 5.60"
>>> result("CCN(CC)C(=O)CNCc1cc(/C=N/CCC2CCCCC2)ccn1")
"5.60 to 6.60"
>>> result("CN(C)C(=O)CNCc1cc(/C=N/CCCc2ccccc2)ccn1")
"< 5.60"
>>> result("CCN(CCN(C)C)C(=O)CNCc1cc(CN)ccn1")
"5.60 to 6.60"
>>> result("CN(C)CCCCNCc1cc(CNC2CC2)ccn1")
"< 5.60"
>>> result("CCN(CCN(C)C)C(=O)CNCc1cc(/C=N/CCO)ccn1")
"> 6.60"
>>> result("O=C(CNCc1cc(/C=N/C2CC2)ccn1)NC1CCN(Cc2ccccc2)C1 (stereo not shown)")
"> 6.60"

---

# EC50 per record follows
- Test system: MOLP8
- procedure_text: Cell proliferation assay MOLP8
- Type: cell-based
- condition: Homo sapiens, MOLP-8; MOLP8, Myeloma; method of Example 5
measurement_type: EC50

>>> result("CCN(CCN(C)C)C(=O)CNCc1cc(/C=N/CC(CO)C2CCCCC2)ccn1 (centres unmarked)")
"< 0.25 µM"
>>> result("CCN(CCN(C)C)C(=O)CNCc1cc(C2OCC(Cc3ccccc3)CN2C(=O)C(F)(F)F)ccn1 (centres unmarked)")
"< 0.25 µM"

---

- system_under_test: KDM5B (Homo sapiens, UniProt Q9UGL1)
- Construct: (a.a. 1-752)
- Sequence (Q9UGL1 1-752): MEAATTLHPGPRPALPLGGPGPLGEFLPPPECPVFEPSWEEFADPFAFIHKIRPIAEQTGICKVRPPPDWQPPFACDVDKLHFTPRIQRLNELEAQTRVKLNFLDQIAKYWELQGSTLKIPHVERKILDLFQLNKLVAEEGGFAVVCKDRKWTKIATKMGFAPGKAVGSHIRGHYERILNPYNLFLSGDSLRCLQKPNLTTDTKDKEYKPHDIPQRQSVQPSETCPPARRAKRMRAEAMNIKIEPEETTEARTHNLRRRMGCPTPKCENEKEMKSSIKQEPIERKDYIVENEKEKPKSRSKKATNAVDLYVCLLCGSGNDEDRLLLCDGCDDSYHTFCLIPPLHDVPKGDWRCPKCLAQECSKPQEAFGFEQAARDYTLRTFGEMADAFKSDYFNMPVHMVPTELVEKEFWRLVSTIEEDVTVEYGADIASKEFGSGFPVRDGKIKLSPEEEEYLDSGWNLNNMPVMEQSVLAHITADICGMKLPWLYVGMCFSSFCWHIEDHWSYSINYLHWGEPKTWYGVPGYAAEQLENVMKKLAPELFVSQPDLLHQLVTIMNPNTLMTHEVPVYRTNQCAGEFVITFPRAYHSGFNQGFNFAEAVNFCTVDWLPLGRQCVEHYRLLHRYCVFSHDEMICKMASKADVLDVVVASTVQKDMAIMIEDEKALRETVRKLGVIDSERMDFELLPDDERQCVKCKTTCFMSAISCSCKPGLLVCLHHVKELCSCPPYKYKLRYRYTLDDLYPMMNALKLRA
- procedure_text: Histone lysine demethylase immunofluorescence assay, U2OS cells transfected with KDM5B
- condition: U2OS cells transfected with pCMVHA KDM5B; mark detected H3K4me2; 20 hours
measurement_type: IC50

>>> result("CN(C)CCCCNCc1cc(C=O)ccn1")
"< 250 nM"
>>> result("CCN(CCN(C)C)C(=O)CNCc1cc(C=O)ccn1")
"< 250 nM"
>>> result("CN(CCc1ccccc1)C(=O)CNCc1cc(/C=N/CCO)ccn1")
"> 2500 nM"
>>> result("CCN(CCN(C)C)C(=O)CNCc1cc(/C=N/CCC2CCCCC2)ccn1")
"< 250 nM"
>>> result("CN(C)CCCCCNCc1cc(/C=N/C2CC2)ccn1")
"< 250 nM"
>>> result("CCN(CC)C(=O)CNCc1cc(C=O)ccn1")
"250 to 2500 nM"
>>> result("CNCc1ccnc(CNCCCN(C)Cc2ccccc2)c1")
"> 2500 nM"
>>> result("CCN(CC)CCCCNCc1cc(C2NCCCN2C)ccn1 (centres unmarked)")
"< 250 nM"
>>> result("CCN(CCN(C)C)C(=O)CNCc1cc(/C=N/CCO)ccn1")
"< 250 nM"
>>> result("CN(C)CCC/N=C/c1ccnc(CNCCCN(C)C)c1")
"< 250 nM"
>>> result("CN(CCCNCc1cc(/C=N/C2CC2)ccn1)Cc1ccccc1")
"250 to 2500 nM"
>>> result("CN1CCC(CNCc2cc(C=O)ccn2)CC1")
"< 250 nM"
>>> result("CN1CCN(C(=O)CNCc2cc(C=O)ccn2)CC1")
"250 to 2500 nM"
>>> result("OCC/N=C/c1ccnc(CNCCc2ccccc2OCc2ccccc2)c1")
"> 2500 nM"

---

# pIC50 per record follows
- system_under_test: KDM4A (Homo sapiens)
- Construct: Full length
- Sequence (O75164 whole entry): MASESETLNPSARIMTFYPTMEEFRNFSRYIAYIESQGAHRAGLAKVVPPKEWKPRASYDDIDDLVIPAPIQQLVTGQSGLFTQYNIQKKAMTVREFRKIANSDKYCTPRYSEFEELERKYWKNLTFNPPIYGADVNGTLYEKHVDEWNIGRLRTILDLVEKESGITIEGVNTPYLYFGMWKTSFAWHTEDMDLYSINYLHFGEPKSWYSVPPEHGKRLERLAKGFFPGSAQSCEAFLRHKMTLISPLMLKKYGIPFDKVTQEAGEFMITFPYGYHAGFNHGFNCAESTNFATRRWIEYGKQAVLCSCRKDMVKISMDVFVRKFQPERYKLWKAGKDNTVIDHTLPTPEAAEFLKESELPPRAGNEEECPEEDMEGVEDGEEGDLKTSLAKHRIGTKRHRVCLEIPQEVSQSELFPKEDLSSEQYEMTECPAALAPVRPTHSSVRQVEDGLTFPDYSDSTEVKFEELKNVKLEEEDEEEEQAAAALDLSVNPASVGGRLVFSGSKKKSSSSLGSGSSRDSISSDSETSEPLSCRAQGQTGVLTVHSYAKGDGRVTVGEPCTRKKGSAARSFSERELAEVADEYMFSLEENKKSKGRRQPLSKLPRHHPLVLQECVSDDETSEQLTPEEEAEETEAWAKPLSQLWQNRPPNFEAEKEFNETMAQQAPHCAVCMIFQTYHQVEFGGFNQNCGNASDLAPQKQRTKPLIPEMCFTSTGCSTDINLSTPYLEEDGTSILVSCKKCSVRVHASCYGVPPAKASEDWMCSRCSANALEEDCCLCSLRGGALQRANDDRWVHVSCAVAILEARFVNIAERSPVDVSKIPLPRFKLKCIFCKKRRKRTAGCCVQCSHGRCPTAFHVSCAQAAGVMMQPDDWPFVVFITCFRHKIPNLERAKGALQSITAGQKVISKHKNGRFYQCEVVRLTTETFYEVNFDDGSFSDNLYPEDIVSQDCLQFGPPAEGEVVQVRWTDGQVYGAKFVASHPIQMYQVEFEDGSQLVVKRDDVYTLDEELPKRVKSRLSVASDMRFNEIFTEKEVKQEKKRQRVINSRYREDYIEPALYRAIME
- procedure_text: Histone lysine demethylase immunofluorescence assay, U2OS cells transfected with KDM4A
- condition: U2OS cells transfected with pCMVHA KDM4A; mark detected H3K9me3; 20 hours
pIC50: −log10 of the molar value.
measurement_type: pIC50

>>> result("CCN(CCN(C)C)C(=O)CNCc1cc(CNC(=O)C(F)(F)F)ccn1 [Compound 25]")
"5.60 to 6.60"
>>> result("CN(C)C/C=C/CNCc1cc(C=O)ccn1 [Compound 98]")
"> 6.60"
>>> result("CN(C)C(=O)CNCc1cc(CNCC#N)ccn1 [Compound 13]")
"5.60 to 6.60"
>>> result("O=Cc1ccnc(CNCCCCN(Cc2ccccc2)C2CC2)c1 [Compound 109]")
"< 5.60"
>>> result("O=Cc1ccnc(CNCCCN2CCCC2)c1 [Compound 111]")
"< 5.60"

---

# pIC50 per record follows
- system_under_test: KDM4C (Homo sapiens, UniProt Q9H3R0)
- Construct: Full length
- Sequence (Q9H3R0 whole entry): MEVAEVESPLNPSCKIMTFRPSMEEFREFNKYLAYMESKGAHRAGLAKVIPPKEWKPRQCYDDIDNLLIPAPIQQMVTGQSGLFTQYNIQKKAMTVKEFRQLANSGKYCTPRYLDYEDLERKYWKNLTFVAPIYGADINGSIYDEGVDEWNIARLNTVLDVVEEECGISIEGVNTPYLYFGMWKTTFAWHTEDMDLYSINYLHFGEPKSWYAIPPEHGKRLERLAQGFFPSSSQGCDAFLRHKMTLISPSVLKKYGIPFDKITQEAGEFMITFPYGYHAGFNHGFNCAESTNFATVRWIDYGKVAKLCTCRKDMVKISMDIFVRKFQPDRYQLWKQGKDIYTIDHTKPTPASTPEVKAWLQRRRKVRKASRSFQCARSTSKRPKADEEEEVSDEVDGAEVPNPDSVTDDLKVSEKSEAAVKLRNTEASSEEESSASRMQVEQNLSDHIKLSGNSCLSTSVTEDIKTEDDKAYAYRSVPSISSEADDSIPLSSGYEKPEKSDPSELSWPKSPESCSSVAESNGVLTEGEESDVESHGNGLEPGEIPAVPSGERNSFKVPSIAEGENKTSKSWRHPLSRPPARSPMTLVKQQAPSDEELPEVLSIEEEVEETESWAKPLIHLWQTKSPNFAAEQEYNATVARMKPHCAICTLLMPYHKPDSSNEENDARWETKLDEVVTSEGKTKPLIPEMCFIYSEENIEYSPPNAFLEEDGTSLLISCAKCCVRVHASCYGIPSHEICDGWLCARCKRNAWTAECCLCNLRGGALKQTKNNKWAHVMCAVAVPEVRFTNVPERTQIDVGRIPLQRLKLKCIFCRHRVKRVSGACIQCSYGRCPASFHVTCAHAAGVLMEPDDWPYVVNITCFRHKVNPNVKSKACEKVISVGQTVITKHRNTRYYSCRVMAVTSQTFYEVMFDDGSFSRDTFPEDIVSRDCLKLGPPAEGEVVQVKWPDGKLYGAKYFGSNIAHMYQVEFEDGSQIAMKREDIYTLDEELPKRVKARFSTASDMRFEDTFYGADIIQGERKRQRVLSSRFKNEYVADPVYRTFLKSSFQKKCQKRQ
- procedure_text: Histone lysine demethylase immunofluorescence assay, U2OS cells transfected with KDM4C
- condition: U2OS cells transfected with pCMVHA KDM4C; mark detected H3K9me3; 20 hours
pIC50: −log10 of the molar value.
measurement_type: pIC50

>>> result("CN(C)C/C=C/CNCc1cc(C=O)ccn1")
"5.60 to 6.60"
>>> result("CN(C)C/C=C\\CNCc1cc(C=O)ccn1")
"< 5.60"
>>> result("CN(C)CC1CCC(CNCc2cc(C=O)ccn2)CC1 (centres unmarked)")
"5.60 to 6.60"
>>> result("CN(C)CCCCNCc1cc(CNC2CC2)ccn1")
"< 5.60"
>>> result("CN(CCCNCc1cc(/C=N/C2CC2)ccn1)Cc1ccccc1")
"5.60 to 6.60"
>>> result("CN1CCCC1CCNCc1cc(/C=N/C2CC2)ccn1 (centres unmarked)")
"5.60 to 6.60"
>>> result("CNC(C#N)c1ccnc(CNCCCN(C)C)c1 (centres unmarked)")
"< 5.60"
>>> result("C#CCN(C)C(=O)CNCc1cc(/C=N/C2CC2)ccn1")
"< 5.60"
>>> result("O=Cc1ccnc(CNCC(=O)NC2CCN(Cc3ccccc3)C2)c1 (centres unmarked)")
"< 5.60"
>>> result("CCSCCNCc1cc(/C=N/C2CC2)ccn1")
"< 5.60"
>>> result("CCN(CC)CCCCNCc1cc(/C=N/CC(F)(F)C(F)(F)F)ccn1")
"5.60 to 6.60"
>>> result("CCN(CC)CCCCNC(=O)CNCc1cc(C=O)ccn1")
"< 5.60"
>>> result("CN(C)C(=O)CNCc1cc(/C=N\\C2CC2)ccn1")
"5.60 to 6.60"
>>> result("CCN(CC)C(=O)CNCc1cc(C=O)ccn1")
"< 5.60"
>>> result("CCN(CC)CCCCN(Cc1cc(CNC(=O)C(F)(F)F)ccn1)C(=O)C(F)(F)F")
"< 5.60"
>>> result("CCN(CCN(C)C)C(=O)CNCc1cc(/C=N/CCC2CCCCC2)ccn1")
"5.60 to 6.60"
>>> result("CN(Cc1ccccc1F)C(=O)CNCc1cc(/C=N/CCO)ccn1")
"< 5.60"
>>> result("CCN(CCN(C)C)C(=O)CNCc1cc(/C=N/CCO)ccn1")
"5.60 to 6.60"
>>> result("CN(C)C(=O)CNCc1cc(CNCCF)ccn1")
"< 5.60"
>>> result("CCN(CC)CCCCNCc1cc(/C=N/CCO)ccn1")
"5.60 to 6.60"
>>> result("CN(CCCn1cccn1)C(=O)CNCc1cc(/C=N/C2CC2)ccn1")
"< 5.60"
>>> result("O=Cc1ccnc(CNCCCN2CCCC2)c1")
"< 5.60"
>>> result("COc1ccccc1CN1CCC(NC(=O)CNCc2cc(CNC3CC3)ccn2)CC1")
"< 5.60"
>>> result("CN1CCN(C(=O)CNCc2cc(C=O)ccn2)CC1")
"< 5.60"
>>> result("COc1ccccc1CN1CCC(NC(=O)CNCc2cc(CN)ccn2)CC1")
"< 5.60"
>>> result("O=C(CNCc1cc(/C=N/C2CC2)ccn1)N1CCC(Cc2ccccc2)CC1")
"< 5.60"
>>> result("CN(C)CCCCCNCc1cc(CN)ccn1")
"5.60 to 6.60"
>>> result("CCN(CC)CCCCNCc1cc(C2NCCN2C)ccn1 (centres unmarked)")
"< 5.60"
>>> result("CN(C)CCNCc1cc(CNC(C#N)C2CC2)ccn1 (centres unmarked)")
"< 5.60"
>>> result("CN(C)CCCCNCc1cc(C=O)ccn1")
"5.60 to 6.60"
>>> result("CN(C)CCCCNCc1cc(/C=N\\C2CC2)ccn1")
"5.60 to 6.60"
>>> result("O=C(CNCc1cc(/C=N/C2CC2)ccn1)N1CCC[C@@H]1CN1CCCC1")
"5.60 to 6.60"
>>> result("CCN(CCN(C)C)C(=O)CNCc1cc(C=O)ccn1")
"5.60 to 6.60"
>>> result("CCN(CC)CCCCNCc1cc(C2NCCCN2C)ccn1 (centres unmarked)")
"5.60 to 6.60"
>>> result("CN(C)CCCCNCc1cc(CN)ccn1")
"5.60 to 6.60"
>>> result("COCCNCc1ccnc(CNCCCN(C)Cc2ccccc2)c1")
"< 5.60"
>>> result("CCN(CC)CCCCNCc1cc(CNC(=O)C(F)(F)F)ccn1")
"5.60 to 6.60"
>>> result("CN(C)C(=O)CNCc1cc(/C=N/CCC2CCCCC2)ccn1")
"< 5.60"
>>> result("CCN(CC)CCCCNC(=O)CNCc1cc(/C=N/C2CC2)ccn1")
"< 5.60"
>>> result("CCN(CC(C)(C)N(C)C)C(=O)CNCc1cc(C=O)ccn1")
"5.60 to 6.60"
>>> result("CCN(CC)CCCCNCc1cc(/C=N\\CCC2CCCCC2)ccn1")
"5.60 to 6.60"
